Experiment: Cell viability of HepG2.2.15.7 cells
Type: cell-based
Settings: human
assayMetric: CC50 at 48 h (µM)
Numbers only, in µM.

Task: Any idea what CC50 at 48 h was measured for C=C[C@H]1C[N@@]2CC[C@H]1C[C@@H]2[C@@H](O)c1ccnc2ccc(OC)cc12 [Compound 39, quinidine] ?
Output: 131
